- protocol_notes: gradient 5% acetonitrile 3 min, to 50% in 2 min, to 85% in 15 min, held 3 min, 100 µL/min
- run_conditions: column: Zorbax Extend-C18 2.1 x 50 mm; eluents: water / acetonitrile, 0.1% formic acid
If the reported RP-LC retention time equals or exceeds 800 s, assign Yes. If not, assign No.

Below are worked cases with known answers.
> print(dat)
                                   molecule  assigned.category
1  CC1CCCN(S(=O)(=O)c2ccc(-n3cnc(C(=O)N4CCN(C)CC4)c3)nc2)C1 (centres undefined)                 No
2  COC(=O)c1ccc(C(=O)Nc2ccc(CC(=O)NC3CC3)cc2)cc1                 No
3  CCCCC(=O)N1CCC2(C1)C(=O)N(C)c1ccccc12 (centres undefined)                 No
4  CCOCCCNC(=O)c1cc2c(n(-c3ccc(C(F)(F)F)cc3)c1=O)CCCC2=O                Yes
5  COc1ccc(-c2nnc(N3CCC(C(=O)NC4CCCCCC4)CC3)o2)cc1                Yes
6  Cc1cc(C)c(S(=O)(=O)N(CCN2CCCCC2C)CC(=O)N2CCNCC2)cc1C (centres undefined)                 No

Req: Could you verify whether the entry Cc1cccc(NC(=O)COc2cc(C)nc(N3CCN(c4ccccc4)CC3)n2)c1 shows RP-LC retention time of no less than 800 s?
Resp: Yes

Req: Answer whether RP-LC retention time of O=C1CC(c2nc(-c3ccc4c(c3)OCO4)no2)CN1c1ccc(F)cc1 (centres undefined) is greater than or equal to 800 s.
Resp: Yes

Req: # bool: RP-LC retention time of Cc1cc(C(F)F)n2nc(C(=O)Nc3cc(F)ccc3C)nc2n1 >= 800 s
Resp: Yes

====

- protocol_notes: gradient 5% acetonitrile 3 min, to 50% in 2 min, to 85% in 15 min, held 3 min, 100 µL/min
- run_conditions: column: Zorbax Extend-C18 2.1 x 50 mm; eluents: water / acetonitrile, 0.1% formic acid
Label met when RP-LC retention time is strictly below 800 s; at or above that, label not met.

> print(dat)
                                smiles.code  assigned.category
1  CCOC(=O)CNC(=O)NC1CCN(C2=NS(=O)(=O)C(c3ccc(C)cc3)=C2C)CC1                met

Req: Below 800 s on RP-LC retention time? Entry O=C(c1ccco1)N1CCN(c2nc(N3CCOCC3)c3n[nH]nc3n2)CC1
Resp: met

Req: Please state whether RP-LC retention time is below 800 s for Cc1cc(C)c(S(=O)(=O)N2CCc3c(c(-c4nnc(-c5ccccc5F)o4)nn3C)C2)c(C)c1
Resp: not met

Req: Lab log: compare recorded RP-LC retention time with 800 s; is it strictly lower for COc1cc(NC(=O)c2cc3cc4cc(OC)ccc4nc3o2)cc(OC)c1 ?
Resp: not met

====

The following compounds are listed with their measured RP-LC retention time values.
- protocol_notes: gradient 5% acetonitrile 3 min, to 50% in 2 min, to 85% in 15 min, held 3 min, 100 µL/min
- run_conditions: column: Zorbax Extend-C18 2.1 x 50 mm; eluents: water / acetonitrile, 0.1% formic acid
Answer with a number only, understood to be in s.

Answered examples (5):
> print(dat)
                                   compound     measured.endpoint  value.observed
1  CCn1c(=O)c2cc(C(=O)NCc3cn[nH]c3C)nn2c2ccccc21  RP-LC retention time             781
2  COc1cc(Cl)ccc1C(=O)N1CCN=C1N1CCN(c2ccccc2F)CC1  RP-LC retention time             749
3  CCOC(=O)Cn1nc2oc(=O)c(CCN3CCN(c4ccccc4OC)CC3)c(C)c2c1C  RP-LC retention time             726
4  COc1ccc(OCc2noc(CNC(=O)C3(c4ccccc4)CCOCC3)n2)cc1  RP-LC retention time             802
5  O=C(Cc1c(F)cccc1Cl)Nc1cnn(-c2ncc(N3CCCC3)cn2)c1  RP-LC retention time             771

Req: Form field: reported RP-LC retention time of COc1ccc(-c2cc(N3CCC(NC(=O)c4ccccc4OC)C3)n[nH]2)cc1 (centres undefined)
Resp: 712

Req: Give its RP-LC retention time value. Item: O=C(NCc1nc(-c2ccc3c(c2)Sc2ccccc2C(=O)N3C2CC2)no1)c1cccs1
Resp: 928

Req: Any idea what RP-LC retention time was measured for Cc1cc2c(=O)n(CC(=O)Nc3ccc4c(c3)OCCO4)c3cccnc3n2n1 ?
Resp: 693

Req: Item under review: Cc1ccsc1C(=O)N1CCC2(CC1)CC(N(C(=O)NC(C)C)C1CC1)CCO2 (centres undefined) . Reported RP-LC retention time?
Resp: 798

Req: Form field: reported RP-LC retention time of CCn1c(C2CCN(S(=O)(=O)c3ccc(Cl)cc3)C2)nc2cccnc21 (centres undefined)
Resp: 796

Req: Please report the recorded RP-LC retention time for COc1ccc2nc([S@](=O)Cc3ncc(C)c(OC)c3C)[nH]c2c1 .
Resp: 664

Req: Endpoint output: RP-LC retention time of CCN1CCN(c2ncnc3sc(C(=O)NCCCOC)c(C)c23)CC1 . Value?
Resp: 563

====

- protocol_notes: gradient 5% acetonitrile 3 min, to 50% in 2 min, to 85% in 15 min, held 3 min, 100 µL/min
- run_conditions: column: Zorbax Extend-C18 2.1 x 50 mm; eluents: water / acetonitrile, 0.1% formic acid
With a cut-off of 800 s, any RP-LC retention time strictly below it is called 1; any RP-LC retention time meeting it or above is called -1.

> print(dat)
                                   compound  assigned.category
1  CSc1cccc(NC(=O)C2CCCN(C(=O)Cc3cccc4ccccc34)C2)c1 (centres undefined)                 -1
2  COc1cccc(N2CCN(c3ccnc(SCC(=O)Nc4ccc(OC)c(Cl)c4)n3)CC2)c1                  1
3  O=C(NCc1ccc(Cl)cc1)C1=C2CCCN2c2ccc(F)cc2S1(=O)=O                 -1
4  CCCn1c(=O)c2cc(C(=O)NCc3ccc(C)cc3)nn2c2ccccc21                 -1
5  Cc1ccc(C(=O)N2CCC(COc3ccc(C(=O)NC4CC4)cc3)CC2)cc1C                 -1
6  O=C(CN1CCN(Cc2nc(-c3ccc(N4CCCCC4)nc3)no2)CC1)N1CCCC1                  1

Req: Dear colleague, could you confirm whether RP-LC retention time of Cc1ccc(-c2nnc(-c3cccnc3NCCCN3CCOCC3)o2)cc1 falls below 800 s? Thanks.
Resp: 1

Req: API: query returns whether the compound falls strictly under 800 s in RP-LC retention time. Query: CCOc1ccc(-c2noc(N3CCC(C(=O)N4CCN(C)CC4)CC3)n2)cc1OC
Resp: 1

Req: Strictly below 800 s: is that where RP-LC retention time of Cc1ccc(N2CC(c3nc(-c4ccccn4)no3)CC2=O)cc1Cl (centres undefined) sits?
Resp: -1

====

- protocol_notes: gradient 5% acetonitrile 3 min, to 50% in 2 min, to 85% in 15 min, held 3 min, 100 µL/min
- run_conditions: column: Zorbax Extend-C18 2.1 x 50 mm; eluents: water / acetonitrile, 0.1% formic acid
Each entry falls into one class according to its RP-LC retention time; the ranges are lower bin: < 700 s; middle bin: ≥ 700 s and < 900 s; upper bin: ≥ 900 s

Take a look at these entries with their results.
> print(dat)
                                   molecule  assigned.category
1  O=C(c1ccccc1F)N1N=C(c2cccs2)CC1c1ccc2nccnc2c1 (centres undefined)         middle bin
2        CC1CCN(C(=O)c2ccc(Cn3cncn3)cc2)CC1          lower bin
3  CCCCn1cc(S(=O)(=O)Nc2ccc(CC)cc2)c2cccnc21          upper bin
4       CCc1cccc(NC(=O)Cn2c(N)nc(C)cc2=O)c1          lower bin
5  CS(=O)(=O)NCCc1ccc(CC2CCN(S(=O)(=O)c3cccnc3)CC2)cc1         middle bin

Req: Using the reported RP-LC retention time, which band applies to CCCn1cc(C2=CCN(C(=O)Nc3ccc(C)c(C)c3)CC2)c2cccnc21 ?
Resp: upper bin

Req: Which of the defined bands does the recorded RP-LC retention time of CC(C)CCNC(=O)C1(CCO)CCN(c2ncccn2)C1 (centres undefined) sit within?
Resp: lower bin

Req: Lab note: which band did O=c1ccc(-c2nc(-c3cccc(Br)c3)no2)cn1Cc1ccncc1 land in?
Resp: middle bin

Req: Dear colleague, I would appreciate it if you could identify the bin for Cc1nc2ccccc2c(=O)n1Cc1noc(-c2cccc(Br)c2)n1 and reply at your convenience.
Resp: upper bin

Req: Record CCN1CCN(c2nc3cc(C(=O)OC)ccc3c(=O)n2-c2ccc3c(c2)OCO3)CC1 — which class?
Resp: lower bin

Req: Class (by measured RP-LC retention time) for CCCN1C(=O)c2cc(C(=O)N3CCC(C)CC3)nn2CC1(C)C(=O)NC1CCCC1 (centres undefined)
Resp: middle bin

Req: Determine which band this molecule sits in: CCCN(c1ccccc1F)S(=O)(=O)c1ccc2c(c1)N(C(C)=O)CCCS2
Resp: upper bin

Req: Would you mind sorting CCc1ccc(CNC(=O)C2CCCN(c3nccc(C)n3)C2)cc1 (centres undefined) into the appropriate category?
Resp: middle bin

The origin of these recorded values is the METLIN SMRT retention time set (Domingo-Almenara et al. 2019).
